Origin of the recorded values: ChEMBL document CHEMBL3431459

test: SUPPLEMENTARY: Lipophilicity (log D) Determination by high-throughput shake-flask; assay type: physicochemical; conditions: octanol/water
Label not satisfied if logD falls below 3; label satisfied in every other case.

Example entries and their recorded answers appear below.
# compound, class name
data = [
    ("O=C([C@H]1CCCCN1C(=O)COc1ccccc1)N1Cc2ccc(C3CCOC3)cc2C1 (some centres undefined)", "not satisfied"),
    ("CC(=O)Nc1cccc(C#C[C@H]2CCCCN2C(=O)COc2ccccc2)c1", "satisfied"),
    ("COc1ccc(Cl)cc1S(=O)(=O)N1CCOc2ccc(C(=O)Nc3nc(CC(=O)O)cs3)cc21", "not satisfied"),
    ("COc1ccc(Cl)cc1S(=O)(=O)N1CCOc2c(Cl)cc(C(=O)Nc3ccn(CC(=O)O)n3)cc21", "not satisfied"),
    ("COc1ccc(Cl)cc1S(=O)(=O)N1CC[S+]([O-])c2ccc(C(=O)Nc3ccc(C(=O)O)cc3)cc21 (centres undefined)", "not satisfied"),
]

**Query** Textbook exercise: given the entry `COc1ccc(Cl)cc1S(=O)(=O)N1CCS(=O)(=O)c2ccc(C(=O)Nc3ccc(C(=O)O)c(F)c3)cc21` , state whether its logD is greater than or equal to 3.
**Result** not satisfied

====

test: SUPPLEMENTARY: Lyophilisation Solubility Assay (LYSA); format: physicochemical; details: read-out: Kinetic_solubility
observed property: solubility kinetic (µg/mL)
Just the number please, in µg/mL, no unit attached.

Look over these answered cases.
# smiles string, solubility kinetic, µg/mL
rows = [
    ("COc1ccc(Cl)cc1S(=O)(=O)N1CCOc2c(C)cc(C(=O)Nc3nc(CC(=O)O)cs3)cc21", 3),
    ("O=C(NCCO)c1cccc(-c2n[nH]c([C@H]3CCCCN3C(=O)COc3ccccc3)n2)c1", 138),
]

Could you now consider this next compound?
What the record says about `Cn1cc(S(=O)(=O)c2cccc(Cl)c2)c2cc(C(=O)Nc3ccc(C(=O)O)cc3)ccc21` : solubility kinetic is 3

====

experiment: SUPPLEMENTARY: PAMPA permeability assay; assay type: physicochemical; conditions: read-out: Permeability
Property: Papp; scope: individual compounds

# compound, Papp
measured = [
    ("O=C(O)c1cncc(-c2noc([C@H]3CCCCN3C(=O)COc3ccccc3)n2)c1", "0.07 ×10⁻⁶ cm/s"),
    ("COc1ccc(Cl)cc1S(=O)(=O)N1COCc2ccc(C(=O)Nc3nc(CC(=O)O)cs3)cc21", "1.31 ×10⁻⁶ cm/s"),
    ("O=C1Cc2cc(-c3noc(C4C5CC5CN4C(=O)COc4ccccc4)n3)ccc2N1 (centres undefined)", "5.4 ×10⁻⁶ cm/s"),
    ("COc1ccc(Cl)cc1S(=O)(=O)N1CCCc2ccc(C(=O)Nc3ccc(C(=O)O)cc3)cc21", "3.2 ×10⁻⁶ cm/s"),
    ("O=C(O)Cc1csc(NC(=O)c2ccc3c(c2)N(S(=O)(=O)c2cccc(Cl)c2)CCO3)n1", "2.91 ×10⁻⁶ cm/s"),
]

Could you now consider this next compound?
What the record says about `CS(=O)(=O)Nc1cccc(-c2n[nH]c([C@H]3CCCCN3C(=O)COc3ccccc3)n2)c1` : Papp is 2.56 ×10⁻⁶ cm/s

====

molecular target: Carnitine O-palmitoyltransferase 1, liver isoform (Rattus norvegicus); assay: SUPPLEMENTARY: Inhibition of Carnitine palmitoyltransferase 1, liver isoform
Sequence (P32198 whole entry, canonical isoform): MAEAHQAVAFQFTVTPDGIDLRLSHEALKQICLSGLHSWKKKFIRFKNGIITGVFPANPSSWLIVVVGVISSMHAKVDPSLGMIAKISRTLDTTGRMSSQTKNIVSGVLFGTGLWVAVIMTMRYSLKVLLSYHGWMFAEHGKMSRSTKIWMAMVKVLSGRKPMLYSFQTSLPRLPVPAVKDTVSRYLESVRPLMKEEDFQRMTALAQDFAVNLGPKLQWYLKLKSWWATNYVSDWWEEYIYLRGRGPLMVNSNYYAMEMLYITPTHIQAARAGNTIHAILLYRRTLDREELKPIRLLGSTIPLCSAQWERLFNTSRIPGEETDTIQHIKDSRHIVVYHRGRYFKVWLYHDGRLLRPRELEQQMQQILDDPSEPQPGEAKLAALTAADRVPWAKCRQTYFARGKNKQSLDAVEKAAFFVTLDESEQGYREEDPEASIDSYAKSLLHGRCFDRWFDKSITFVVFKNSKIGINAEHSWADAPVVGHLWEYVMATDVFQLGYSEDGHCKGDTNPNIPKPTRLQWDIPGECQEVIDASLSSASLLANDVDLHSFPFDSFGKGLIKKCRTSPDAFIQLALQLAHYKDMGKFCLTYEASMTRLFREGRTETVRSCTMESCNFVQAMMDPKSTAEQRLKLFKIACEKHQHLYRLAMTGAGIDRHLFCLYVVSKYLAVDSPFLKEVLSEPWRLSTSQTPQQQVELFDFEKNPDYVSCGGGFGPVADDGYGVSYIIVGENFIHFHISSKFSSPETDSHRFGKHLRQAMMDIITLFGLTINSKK
Property: IC50; scope: individual molecules

Look over these answered cases.
# smiles string, recorded result
data = [
    ("COc1ccc(Cl)cc1S(=O)(=O)N1CCOc2ccc(C(=O)Nc3ccn(CC(=O)O)n3)cc21", "171 nM"),
    ("Cc1cc(C)cc(S(=O)(=O)N2CCSc3ccc(C(=O)Nc4ccc(C(=O)O)cc4)cc32)c1", "26 nM"),
    ("NC(=O)COc1cccc(-c2noc([C@H]3CCCCN3C(=O)COc3ccccc3)n2)c1", "147 nM"),
]

Could you now consider this next molecule?
What the record says about `Nc1ncc(Cl)c(-c2nc([C@H]3CCCCN3C(=O)COc3ccccc3)no2)n1` : IC50 is 129 nM
